pKi values by entry
biological target: human recombinant dopamine D3 receptor (Homo sapiens (Human), UniProt P35462); assay: Test of binding inhibition for dopamine D3 receptor ([3H]-Methylspiperone SPA); details: Jump-In HEK cell membranes, 2 nM [3H]-Methylspiperone, 120 min at 25° C.; read-out: hD3_Ki
Sequence (P35462 whole entry): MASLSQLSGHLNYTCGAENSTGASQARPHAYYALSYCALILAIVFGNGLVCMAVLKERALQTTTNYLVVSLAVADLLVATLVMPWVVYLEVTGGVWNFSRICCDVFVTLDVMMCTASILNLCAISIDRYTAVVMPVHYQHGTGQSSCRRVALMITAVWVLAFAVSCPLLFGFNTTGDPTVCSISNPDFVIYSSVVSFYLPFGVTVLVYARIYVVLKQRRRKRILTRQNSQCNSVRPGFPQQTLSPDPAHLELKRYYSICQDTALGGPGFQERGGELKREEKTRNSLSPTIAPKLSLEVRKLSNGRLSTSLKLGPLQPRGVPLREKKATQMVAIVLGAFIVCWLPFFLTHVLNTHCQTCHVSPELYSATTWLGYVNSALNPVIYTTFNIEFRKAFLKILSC
pKi is defined as minus the log10 of a concentration measured in mol/L.

For Cn1cc(CC(=O)N[C@H]2CC[C@H](CCN3CCc4nc(OC5CC(F)(F)C5)sc4CC3)CC2)cn1 [Example I-021] the molecule record lists pKi as 9.82

pKi reported for this molecule C[C@H](Oc1nc2c(s1)CCN(CC[C@H]1CC[C@H](NC(=O)c3cccc(=O)n3C)CC1)CC2)C(F)(F)F [III-5] : 9.64

Reported pKi of Cn1ncc(CC(=O)N[C@H]2CC[C@H](CCN3CCc4ccc(OCC(F)F)nc4CC3)CC2)n1 [I′-44] : 9.96

Lookup result for CCc1ncccc1C(=O)N[C@H]1CC[C@H](CCN2CCc3ccc(OC4CCC4)nc3CC2)CC1 [Example I-088] ; measured pKi: 9.10

The value of pKi measured for the molecule Cc1ncc(OCC(=O)NC23CCC(CCN4CCc5nc(OCC(F)(F)F)sc5CC4)(CC2)CC3)cn1 [II-9] turned out to be 9.92

The reported value for CC(Oc1ccc2c(n1)CCN(CC[C@H]1CC[C@H](NC(=O)c3cccc4nn(C)cc34)CC1)CC2)C(F)F (single isomer, unassigned) [Example I-123] in terms of pKi is 10.47

Briefly, pKi measured for Cc1ncc(CC(=O)N[C@H]2CC[C@H](CCN3CCc4nc(OCC(F)F)sc4CC3)CC2)cn1 [I′-56] : 9.52
